- test-method-notes: Nuclear factor erythroid 2-related factor 2/antioxidant responsive element (Nrf2/ARE) small molecule agonists: luciferase reporter gene qHTS assay in human keratinocytes (AID 1919969); also: nearly all actives have a fitted effect of over 35% in size
- measurement-parameters: KeratinoSens HaCaT ARE-luciferase, luminescence, 24 h; series mostly up to 92.4 µM
Results filed as inconclusive are left out. Calls of active or inactive are those of the source. Calls follow the shape of the full dose curve.
Pick from y = active, n = inactive when you respond.

Query: Test call for this molecule, please: `CCCCCCCC(OC)OC`
Result: n

----------
- test-method-notes: Nuclear factor erythroid 2-related factor 2/antioxidant responsive element (Nrf2/ARE) small molecule agonists: qHTS cell viability counter screen in human keratinocytes (AID 1919968); also: nearly all actives have a fitted effect of over 55% in size
- measurement-parameters: KeratinoSens HaCaT ARE cells viability, CellTiter-Fluor, 24 h; series mostly up to 92.4 µM
Records with an inconclusive call do not appear. Activity calls are given as the source filed them. Calls come from the whole dose curve; as a rule, active = well fitted cell-killing curve with a large enough effect in the repeat runs; inconclusive = weak or mixed curves, or effect the other way; inactive = flat fitted curve, though single readings scatter.
Bench note: report the call from active, inactive

Examples with answers:
[[record]]
compound = "Nc1nc(N)nc(-c2ccccc2)n1"
class_label = "inactive"

[[record]]
compound = "C[C@H]1C[C@@H](O)CC(C)(C)C1"
class_label = "inactive"

[[record]]
compound = "C1CCC2OC2C1 (configuration not stated)"
class_label = "inactive"


Query: Please let me know the test result on file for `C[N+](C)(C)CCO` .
Result: inactive

Query: Would you kindly repeat that for `CCCCCCCCN(C)C` ?
Result: inactive

Query: Then `NC(=O)c1ccc(N)cc1` ?
Result: inactive

----------
- test-method-notes: Nuclear factor erythroid 2-related factor 2/antioxidant responsive element (Nrf2/ARE) small molecule agonists: qHTS cell viability counter screen in human keratinocytes (AID 1919968); also: nearly all actives have a fitted effect of over 55% in size
- measurement-parameters: KeratinoSens HaCaT ARE cells viability, CellTiter-Fluor, 24 h; series mostly up to 92.4 µM
- Source text: U.S. Tox21 Program National Center for Advancing Translational Sciences [NCATS] Division of Preclinical Innovation [DPI] U.S. Environmental Protection Agency [EPA] National Institutes of Environmental Health Sciences [NIEHS] National Toxicology Program [NTP] U.S. Food and Drug Administration [FDA] […] The activation of the report gene under culture conditions can be detected by ONE-Glo Luciferase Assay System (Promega, Madison, WI). […]
Inconclusive results are not listed. Activity calls are given as the source filed them. Calls come from the whole dose curve; as a rule, active = well fitted cell-killing curve with a large enough effect in the repeat runs; inconclusive = weak or mixed curves, or effect the other way; inactive = flat fitted curve, though single readings scatter.
Would you mind answering with one of these outcomes? True for active, False for inactive

[[record]]
compound = "Nc1cc([N+](=O)[O-])ccc1O"
class_label = "False"


Query: Per the records of this test, what outcome belongs to `CCN(CC)CC(=O)OCC(=O)[C@@]1(O)CC[C@H]2[C@@H]3CCC4=CC(=O)CC[C@]4(C)[C@H]3[C@@H](O)C[C@@]21C` ?
Result: False

Query: `C=CC(=O)NCOCC(C)C` , same question.
Result: False

----------
- test-method-notes: Nuclear factor erythroid 2-related factor 2/antioxidant responsive element (Nrf2/ARE) small molecule agonists: qHTS cell viability counter screen in human keratinocytes (AID 1919968); also: nearly all actives have a fitted effect of over 55% in size
- measurement-parameters: KeratinoSens HaCaT ARE cells viability, CellTiter-Fluor, 24 h; series mostly up to 92.4 µM
Records with an inconclusive call do not appear. Calls of active or inactive are those of the source. Calls come from the whole dose curve; as a rule, active = well fitted cell-killing curve with a large enough effect in the repeat runs; inconclusive = weak or mixed curves, or effect the other way; inactive = flat fitted curve, though single readings scatter.
Respond with a class label; see Y (active), N (inactive)

# example entries with known answers
[[record]]
compound = "c1ccsc1"
class_label = "N"

[[record]]
compound = "c1ccc2sc(SSN3CCOCC3)nc2c1"
class_label = "Y"


Query: Dear all, I need the recorded test outcome for `CCCCSCCCC` , thank you.
Result: N

Query: Try the compound `O=C1C(O)=C(O)C(=O)C(O)=C1O`
Result: N

Query: And the next one, `O=C1C(c2[nH]c3ccc(S(=O)(=O)O)cc3c2O)=Nc2ccc(S(=O)(=O)O)cc21` ?
Result: N

Query: Then what about the compound `Cc1ccc(-c2ccccc2C#N)cc1` ?
Result: N

Query: // next record O=C(NCC1CCCCN1)c1cc(OCC(F)(F)F)ccc1OCC(F)(F)F (configuration not stated)
Result: N
